biological target: mineralocorticoid receptor (MR) (Rattus norvegicus, UniProt P22199); construct: the homogenate was centrifuged at 100,000×g for 1 hour to give a supernatant as a kidney cytosol fraction; from tissue; host or cells: kidney cytosol fraction of adrenalectomised male Sprague-Dawley rats; test: Aldosterone receptor binding assay (rat kidney cytosol, [3H]aldosterone); conditions: [3H]aldosterone binding to MR of rat kidney cytosol fraction; Ki by Cheng-Prusoff; read-out: Ki
Sequence (P22199 whole entry): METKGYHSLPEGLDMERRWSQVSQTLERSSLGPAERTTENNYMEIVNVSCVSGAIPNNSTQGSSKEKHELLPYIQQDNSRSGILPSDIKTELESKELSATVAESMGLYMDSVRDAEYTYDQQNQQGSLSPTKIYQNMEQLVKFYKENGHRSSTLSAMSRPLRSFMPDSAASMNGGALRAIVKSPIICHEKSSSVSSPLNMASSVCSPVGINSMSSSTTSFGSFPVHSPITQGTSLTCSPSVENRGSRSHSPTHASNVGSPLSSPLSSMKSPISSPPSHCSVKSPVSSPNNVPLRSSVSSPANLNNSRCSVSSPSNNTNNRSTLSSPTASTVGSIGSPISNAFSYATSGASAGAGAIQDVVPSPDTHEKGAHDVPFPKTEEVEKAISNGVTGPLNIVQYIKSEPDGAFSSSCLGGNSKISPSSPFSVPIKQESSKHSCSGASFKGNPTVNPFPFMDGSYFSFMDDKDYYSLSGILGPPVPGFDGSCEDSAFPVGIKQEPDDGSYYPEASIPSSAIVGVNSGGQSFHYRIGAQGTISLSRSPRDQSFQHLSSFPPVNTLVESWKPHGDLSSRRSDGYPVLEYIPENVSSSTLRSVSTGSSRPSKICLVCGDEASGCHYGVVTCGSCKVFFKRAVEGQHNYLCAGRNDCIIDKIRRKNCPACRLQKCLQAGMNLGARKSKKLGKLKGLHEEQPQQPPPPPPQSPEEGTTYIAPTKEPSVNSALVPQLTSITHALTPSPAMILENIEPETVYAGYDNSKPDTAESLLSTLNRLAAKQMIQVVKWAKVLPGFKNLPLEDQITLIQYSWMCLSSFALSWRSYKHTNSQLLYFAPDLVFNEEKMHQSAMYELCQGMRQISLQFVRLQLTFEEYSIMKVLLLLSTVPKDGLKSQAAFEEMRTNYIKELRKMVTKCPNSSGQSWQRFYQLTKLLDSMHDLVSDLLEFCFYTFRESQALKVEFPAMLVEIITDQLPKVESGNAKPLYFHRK
pKi: −log10 of the molar value.
# reported pKi; entries follow
measure: pKi

1) CC1(C)Oc2cc(NS(C)(=O)=O)ccc2C(c2ccc(Cl)c(F)c2)=C1C#N: > 6.30
2) CC1(C)N=C(c2ccccc2)c2ccc(NS(C)(=O)=O)cc2O1: 6.00 to 6.30
3) Cc1cc(NS(C)(=O)=O)cc2c1C(c1ccc(F)cc1)=NC(C)(C)O2: > 6.30
4) Cc1cc(Cl)ccc1C1=CC(C)(C)Oc2cc(NS(C)(=O)=O)ccc21: > 6.30
5) CC1(C)N=C(c2csc3ccccc23)c2ccc(NS(C)(=O)=O)cc2O1: > 6.30
6) CNS(=O)(=O)c1ccc2c(c1)OC(C)(C)N=C2c1ccc(F)cc1: 6.00 to 6.30
7) CC1(C)N=C(c2ccc(Cl)cc2)c2ccc(NS(C)(=O)=O)cc2O1: > 6.30
8) CS(=O)(=O)Nc1ccc2c(c1)OC1(CCCC1)C(C#N)=C2c1ccc(F)cc1: > 6.30
9) CC1=C(c2ccc(F)cc2)c2ccc(NS(C)(=O)=O)cc2OC1(C)C: > 6.30
10) CC1(C)CC(c2ccc(F)cc2)c2ccc(NS(C)(=O)=O)cc2O1 (stereo not shown): > 6.30
